Target: UniProt P08913
Assay: cell-based
measured attribute: Kb (nM)

Cc1nc2cccnc2n1[C@H]1CCCN(C[C@H]2COc3ccccc3O2)C1; 161
O=C1NC(c2ccccc2)(c2ccccc2)CN1[C@H]1CCCN(C[C@H]2COc3ccccc3O2)C1; 60
CC(=O)N1CCC(N2C(=O)C(=O)N([C@H]3CCCN(C[C@H]4COc5ccccc5O4)C3)C2=O)CC1; 441
C[C@@H](c1ccccc1)N1C(=O)C(=O)N([C@H]2CCCN(C[C@H]3COc4ccccc4O3)C2)C1=O; 36

---

Biological target: human alpha2A receptors (Homo sapiens, UniProt P08913)
Sequence (P08913 whole entry): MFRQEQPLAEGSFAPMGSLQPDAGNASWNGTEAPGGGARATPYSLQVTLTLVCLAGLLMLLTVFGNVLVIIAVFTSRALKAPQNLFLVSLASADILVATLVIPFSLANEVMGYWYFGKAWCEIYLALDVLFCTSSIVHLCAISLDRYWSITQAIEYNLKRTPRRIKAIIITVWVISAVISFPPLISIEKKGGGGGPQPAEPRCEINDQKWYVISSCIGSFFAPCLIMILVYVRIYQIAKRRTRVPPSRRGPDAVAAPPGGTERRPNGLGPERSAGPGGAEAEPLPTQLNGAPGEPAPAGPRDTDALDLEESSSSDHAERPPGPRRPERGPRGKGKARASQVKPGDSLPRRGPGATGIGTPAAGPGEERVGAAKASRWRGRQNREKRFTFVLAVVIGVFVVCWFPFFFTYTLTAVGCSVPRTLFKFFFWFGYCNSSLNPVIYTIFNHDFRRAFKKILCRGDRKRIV
Assay: cell-based
Counter-ions that a name gives are not always drawn.
measured attribute: Kb

CN(C)C(=O)CN1CC(=O)N([C@H]2CCCN(C[C@H]3COc4ccccc4O3)C2)C1=O; > 0.449 µM
CC1CCN([C@H]2CCCN(C[C@H]3COc4ccccc4O3)C2)C1=O (single isomer, unassigned; diastereomer 1) [example 98]; > 0.449 µM
O=C1c2cccc(F)c2CN1[C@H]1CCCN(C[C@H]2COc3ccccc3O2)C1 [example 57, hydrochloride]; > 0.449 µM
O=C1c2cncnc2CN1[C@H]1CCCN(C[C@H]2COc3ccccc3O2)C1; > 0.449 µM
O=C1Cc2ccccc2N1[C@H]1CCCN(C[C@H]2COc3ccccc3O2)C1; > 0.449 µM
CC(=O)NCc1ccc2c(c1)CN([C@H]1CCCN(C[C@H]3COc4ccccc4O3)C1)C2=O; > 0.449 µM
O=C1C(=O)N([C@H]2CCCN(C[C@H]3COc4ccccc4O3)C2)C(=O)N1Cc1ccccc1; 0.256 µM
O=c1[nH]c2cc(F)ccc2n1[C@H]1CCCN(C[C@H]2COc3ccccc3O2)C1; > 0.449 µM
Cc1nc2c(F)cc(F)cc2n1[C@H]1CCCN(C[C@H]2COc3ccccc3O2)C1; > 0.449 µM
O=C1NC(c2ccccc2)C(=O)N1[C@H]1CCCN(C[C@H]2COc3ccccc3O2)C1 (stereo partly shown); 0.105 µM
O=c1[nH]c2ccccc2c(=O)n1[C@H]1CCCN(C[C@H]2COc3ccccc3O2)C1; > 0.449 µM
CC1=C(c2ccccc2)C(=O)N([C@H]2CCCN(C[C@H]3COc4ccccc4O3)C2)C1; > 0.449 µM
O=C1c2ccc(F)cc2CN1[C@H]1CCCN(C[C@H]2COc3ccccc3O2)C1 [example 58, hydrochloride]; > 0.449 µM
O=C1C2CCCC2C(=O)N1[C@H]1CCCN(C[C@H]2COc3ccccc3O2)C1 (stereo partly shown) [example 92, hydrochloride]; > 0.449 µM
O=c1[nH]c2ccc(F)cc2n1[C@H]1CCCN(C[C@H]2COc3ccccc3O2)C1; > 0.449 µM
C[C@H]1NC(=O)N([C@H]2CCCN(C[C@H]3COc4ccccc4O3)C2)C1=O; > 0.449 µM
